Target: UniProt P08482
Sequence (P08482 1-460): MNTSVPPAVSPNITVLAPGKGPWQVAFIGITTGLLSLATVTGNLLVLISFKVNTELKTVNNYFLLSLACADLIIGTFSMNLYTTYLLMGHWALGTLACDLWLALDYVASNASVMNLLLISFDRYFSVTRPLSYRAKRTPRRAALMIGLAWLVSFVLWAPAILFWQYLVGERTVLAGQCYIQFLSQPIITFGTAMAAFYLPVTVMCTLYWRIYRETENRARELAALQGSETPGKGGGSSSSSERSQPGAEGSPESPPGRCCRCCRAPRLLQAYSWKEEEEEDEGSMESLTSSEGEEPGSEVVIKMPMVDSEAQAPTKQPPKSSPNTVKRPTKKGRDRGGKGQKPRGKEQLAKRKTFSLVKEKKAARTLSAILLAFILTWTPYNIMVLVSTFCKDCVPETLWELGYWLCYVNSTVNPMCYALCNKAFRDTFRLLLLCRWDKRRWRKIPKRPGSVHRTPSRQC
Test: mAChR M1 cell-based functional assay (calcium mobilization, Fluo-4, FDSS)
Settings: positive allosteric modulation of EC20 acetylcholine response, CHO-K1 cells expressing mAChR M1; read-out: Potency (EC50)
pEC50 by entry:
// pEC50 here means minus log10 of the molar concentration (mol/L)

These solved cases illustrate the format of a correct answer.
{"smilesText": "Cc1cc(NC(=O)CS(=O)(=O)c2cn(Cc3cccc(-c4ccncc4)c3)c3cc(F)cc(F)c23)no1", "pEC50": 5.92}
{"smilesText": "COc1ncc(-c2cccc(Cn3cc(S(=O)(=O)CC(=O)Nc4ccccn4)c4c(F)cc(F)cc43)c2)cn1", "pEC50": 5.47}
{"smilesText": "Cc1cc(NC(=O)CS(=O)(=O)c2cn(Cc3cccc(Br)c3)c3ccccc23)no1", "pEC50": 5.42}
{"smilesText": "O=C(CS(=O)(=O)c1cn(Cc2cccc(Br)c2)c2cc(F)cc(F)c12)Nc1cccnn1", "pEC50": 5.62}

Look up pEC50 for this compound: Nc1cccc(Cn2cc(S(=O)(=O)CC(=O)Nc3ccccn3)c3c(F)cc(F)cc32)c1
5.25

Quick one: Cc1cc(NC(=O)CS(=O)(=O)c2cn(Cc3cccc(-c4cccnc4)c3)c3cc(F)cc(F)c23)no1
5.62

###

Target: UniProt:P08482
Sequence (P08482 1-460): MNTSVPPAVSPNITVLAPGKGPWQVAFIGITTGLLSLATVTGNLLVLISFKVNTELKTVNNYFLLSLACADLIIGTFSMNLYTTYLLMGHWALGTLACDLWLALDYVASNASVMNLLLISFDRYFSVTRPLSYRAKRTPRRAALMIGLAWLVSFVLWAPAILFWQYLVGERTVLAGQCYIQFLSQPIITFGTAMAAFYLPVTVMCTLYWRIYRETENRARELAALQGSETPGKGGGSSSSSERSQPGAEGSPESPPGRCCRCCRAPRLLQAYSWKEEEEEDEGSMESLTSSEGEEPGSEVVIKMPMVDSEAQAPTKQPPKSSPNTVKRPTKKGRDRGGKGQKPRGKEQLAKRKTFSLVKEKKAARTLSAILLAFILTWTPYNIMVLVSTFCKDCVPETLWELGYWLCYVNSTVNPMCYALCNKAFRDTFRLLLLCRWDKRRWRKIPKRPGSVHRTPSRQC
Experiment: mAChR M1 cell-based functional assay (calcium mobilization, Fluo-4, FDSS)
Conditions: maximal calcium flux response from curve fit or response at 30 μM compound, as % of the EC80 ACh response
quantity: Efficacy (% ACh maximum at 30 μM) (%)
Output spec: scalar in %, unitless text.

{"smilesText": "O=C(CS(=O)(=O)c1cn(Cc2cccc(Br)c2)c2cc(F)cc(F)c12)Nc1ccccn1", "unitAnnotation": "%", "Efficacy (% ACh maximum at 30 μM)": 62}

Look up Efficacy (% ACh maximum at 30 μM) for this compound: Cc1cc(NC(=O)CS(=O)(=O)c2cn(Cc3cc(-c4cn[nH]c4)ccc3F)c3ccccc23)no1
96

Quick one: Cc1cc(NC(=O)CS(=O)(=O)c2cn(Cc3cccc(Cl)c3)c3ccccc23)no1
96

Quick one: COc1ccc(-c2cccc(Cn3cc(S(=O)(=O)CC(=O)Nc4ccccn4)c4c(F)cc(F)cc43)c2)cn1
42

###

EC50 by entry:
molecular target: UniProt:P08482; assay: mAChR M1 cell-based functional assay (calcium mobilization, Fluo-4, FDSS); conditions: positive allosteric modulation of EC20 acetylcholine response, CHO-K1 cells expressing mAChR M1; read-out: Potency (EC50)

These solved cases illustrate the format of a correct answer.
{"smilesText": "Cc1cc(NC(=O)CS(=O)(=O)c2cn(Cc3cccc(F)c3)c3ccccc23)no1", "testedOn": "UniProt:P08482", "quantity": "EC50", "testResult": "5.22 µM"}
{"smilesText": "Cc1cc(NC(=O)CS(=O)(=O)c2cn(Cc3ccc4c(c3)OCO4)c3ccccc23)no1", "testedOn": "UniProt:P08482", "quantity": "EC50", "testResult": "> 10 µM"}
{"smilesText": "Cc1cc(NC(=O)CS(=O)(=O)c2cn(Cc3cccc(C#N)c3)c3ccccc23)no1", "testedOn": "UniProt:P08482", "quantity": "EC50", "testResult": "> 10 µM"}

Look up EC50 for this compound: O=C(CS(=O)(=O)c1cn(Cc2cccc(-c3ccncc3)c2)c2cc(F)cc(F)c12)Nc1ccccn1
2.9 µM

Quick one: O=C(CS(=O)(=O)c1cn(Cc2cccc(Br)c2)c2cc(F)cc(F)c12)Nc1ccccn1
2.4 µM

Quick one: Cc1cc(NC(=O)CS(=O)(=O)c2cn(Cc3cccc(C(F)(F)F)c3)c3ccccc23)no1
> 10 µM

Quick one: COc1ncccc1-c1cccc(Cn2cc(S(=O)(=O)CC(=O)Nc3ccccn3)c3c(F)cc(F)cc32)c1
> 10 µM

Quick one: O=C(CS(=O)(=O)c1cn(Cc2cccc(Br)c2)c2cc(F)cc(F)c12)NC1COC1
> 10 µM

###

Biological target: mAChR M1 (UniProt P08482)
Sequence (P08482 1-460): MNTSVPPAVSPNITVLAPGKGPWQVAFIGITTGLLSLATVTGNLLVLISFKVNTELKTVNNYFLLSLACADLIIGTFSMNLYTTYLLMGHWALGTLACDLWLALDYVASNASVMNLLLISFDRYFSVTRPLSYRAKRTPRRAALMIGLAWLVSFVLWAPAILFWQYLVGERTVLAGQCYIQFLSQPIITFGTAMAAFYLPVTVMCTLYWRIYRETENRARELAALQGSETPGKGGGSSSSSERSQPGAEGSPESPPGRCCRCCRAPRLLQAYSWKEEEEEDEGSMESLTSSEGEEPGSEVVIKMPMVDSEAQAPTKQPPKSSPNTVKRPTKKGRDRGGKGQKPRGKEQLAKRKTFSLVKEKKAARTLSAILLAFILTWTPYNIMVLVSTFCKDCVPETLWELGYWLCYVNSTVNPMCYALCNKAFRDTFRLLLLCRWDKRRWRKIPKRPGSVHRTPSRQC
Assay: mAChR M1 cell-based functional assay (calcium mobilization, Fluo-4, FDSS)
Conditions: positive allosteric modulation of EC20 acetylcholine response, CHO-K1 cells expressing mAChR M1; read-out: Potency (EC50)
EC50 by entry:

These solved cases illustrate the format of a correct answer.
{"smilesText": "Cc1cc(NC(=O)CS(=O)(=O)c2cn(Cc3ccc(F)c(Br)c3)c3ccccc23)no1", "EC50": "> 10 µM"}
{"smilesText": "O=C(CS(=O)(=O)c1cn(Cc2cccc(Br)c2)c2cc(F)cc(F)c12)Nc1nc2ccccc2o1", "EC50": "2.5 µM"}
{"smilesText": "Cc1cc(NC(=O)CS(=O)(=O)c2cn(Cc3cc(Br)cc(Br)c3)c3ccccc23)no1", "EC50": "> 10 µM"}
{"smilesText": "Cc1cc(NC(=O)CS(=O)(=O)c2cn(Cc3cccc(Br)c3F)c3ccccc23)no1", "EC50": "> 10 µM"}
{"smilesText": "O=C(CS(=O)(=O)c1cn(Cc2cccc(-c3cccnc3Cl)c2)c2cc(F)cc(F)c12)Nc1ccccn1", "EC50": "2.7 µM"}

Look up EC50 for this molecule: Cc1cc(NC(=O)CS(=O)(=O)c2cn(Cc3ccc(Br)cc3F)c3ccccc23)no1
> 10 µM

Quick one: O=C(CS(=O)(=O)c1cn(Cc2cccc(-c3cncnc3)c2)c2cc(F)cc(F)c12)Nc1ccccn1
> 10 µM

Quick one: Cc1cc(NC(=O)CS(=O)(=O)c2cn(Cc3cccc(Cl)c3)c3ccccc23)no1
5.82 µM

###

Target: mAChR M1 (UniProt P08482)
Test: mAChR M1 cell-based functional assay (calcium mobilization, Fluo-4, FDSS)
Conditions: positive allosteric modulation of EC20 acetylcholine response, CHO-K1 cells expressing mAChR M1; read-out: Potency (EC50)
Description: Chinese hamster ovary (CHO-K1) cells stably expressing rat (r)M1 were purchased from the American Type Culture Collection and cultured according to their indicated protocol. […] Calcium flux was measured using the Functional Drug Screening System (FDSS) 6000 (Hamamatsu Corporation, Tokyo, Japan) as an increase in the fluorescent static ratio. […] Agonist activity was analyzed as a concentration-dependent increase in calcium mobilization upon compound addition. […]
quantity: EC50 (µM)
Output spec: scalar in µM, unitless text.

These solved cases illustrate the format of a correct answer.
{"molecule": "O=C(CS(=O)(=O)c1cn(Cc2cccc(-c3ccnc(F)c3)c2)c2cc(F)cc(F)c12)Nc1ccccn1", "EC50 (µM)": 3.5}
{"molecule": "Cc1cc(NC(=O)CS(=O)(=O)c2cn(Cc3cccc(-c4cn[nH]c4)c3)c3cc(F)cc(F)c23)no1", "EC50 (µM)": 1.85}
{"molecule": "[N-]=[N+]=Nc1cccc(Cn2cc(S(=O)(=O)CC(=O)Nc3ccccn3)c3c(F)cc(F)cc32)c1", "EC50 (µM)": 2.8}
{"molecule": "O=C(CS(=O)(=O)c1cn(Cc2cccc(-n3ccnn3)c2)c2cc(F)cc(F)c12)Nc1ccccn1", "EC50 (µM)": 2.6}
{"molecule": "Cc1cc(NC(=O)CS(=O)(=O)c2cn(Cc3cccc(-n4ccnn4)c3)c3cc(F)cc(F)c23)no1", "EC50 (µM)": 1.5}
{"molecule": "Cc1cc(NC(=O)CS(=O)(=O)c2cn(Cc3cc(-c4cn[nH]c4)ccc3F)c3ccccc23)no1", "EC50 (µM)": 3.07}

Now consider a different molecule.
Look up EC50 for this molecule: Cc1cc(NC(=O)C[S+]([O-])c2cn(Cc3cccc(Cl)c3)c3ccccc23)no1 (stereo not shown)
5.23
